tested on: MDA-MB-231 breast; assay: NCI-60 one-dose screen, 48 h (100 = growth as untreated, 0 = no growth, -100 = all killed); details: 10 µM unless noted
This is part of a sample that, as a whole, favours compounds with a hit. Of some 83,000 tested, about 20% had one in any assay.
Where growth equals or exceeds 30%, the correct label is Y; where it does not, the label is N.

molecule: O=C1C2(c3ccccc3)C(c3ccccc3)=C(c3ccccc3)C1(c1ccccc1)C1CC=CC12 (stereo not drawn)
assigned_category: Y
--
molecule: COc1ccc(/C=N\NC(=O)CN2CCN(c3cc4c(cc3F)c(=O)c(C(=O)N/N=C/c3ccc(OC)c(OC)c3)cn4C3CC3)CC2)cc1OC
assigned_category: N
--
molecule: CCc1ccc(-c2ccc(=O)n(-c3ccc(S(N)(=O)=O)cc3)n2)cc1
assigned_category: Y
--
molecule: COc1cccc(/C=C2\Oc3cc(OCCCN4CCCC4)ccc3C2=O)c1
assigned_category: Y
--
molecule: COc1cc(-c2nn(-c3cccc(NC(=O)c4ccccc4)c3)cc2-c2ccncc2)ccc1Cl
assigned_category: N
--
molecule: COc1ccc(-c2c(-c3cc(OC)c4c(c3)OCO4)noc2N)cc1
assigned_category: N
--
molecule: O=[N+]([O-])c1ccc(C(c2ccccc2)c2ccccc2)cc1
assigned_category: Y
--
molecule: N#Cc1c(-c2ccccc2)nc(SCC(=O)N2CCN(c3ccccc3)CC2)[nH]c1=O
assigned_category: Y
--
molecule: COc1cc(-c2nn(-c3cccc(NC(=O)c4ccc(Cl)c(C(F)(F)F)c4)c3)cc2-c2ccncc2)ccc1Cl
assigned_category: N
--
molecule: Cc1cccc(/C=N/Nc2cc(C)c3cccc(C)c3n2)n1
assigned_category: Y
--
molecule: COc1cc(/C=C/C(=O)N2CCN(C(=O)/C=C/c3cc(OC)c(OC)c(OC)c3)CC2)cc(OC)c1OC
assigned_category: Y
--
molecule: NC1=C(/C(N)=N/O)C(c2ccccc2)c2ccc3ccccc3c2O1 (stereo not drawn)
assigned_category: N
--
molecule: CCCCCCCCC(C)OC(=O)c1nn(C(C)=O)c2ccccc12 (stereo not drawn)
assigned_category: Y

---

Below, each of the compounds is paired with its reported growth value.
Tested on: EKVX NSCLC
Test: NCI-60 one-dose screen, 48 h (100 = growth as untreated, 0 = no growth, -100 = all killed)
Settings: 10 µM unless noted
Experimental: Growth inhibition of the EKVX human Non-Small Cell Lung tumor cell line is measured as a screen for anti-cancer activity. Cells are grown in 96 well plates and exposed to the test compound for 48 hours. Compounds are tested at a single concentration, which is 10^-5 M for most compounds. The reported endpoint is percent growth (GI% or GIPRCNT), where numbers from 0 - 100% represent growth inhibition, and numbers from -100% - 0 represent cell death. […]
About 83,000 compounds went through this panel and 20% of them were active in at least one assay; those are over-represented in the sample as a whole.
property_label: growth (%)

compound: COc1ccc(/C=C2\N=C(c3ccccc3)N(C(=O)c3ccccc3O)NC2=O)cc1
assay_value: 88.3
--
compound: C=C1C(=O)O[C@H]2[C@H]1CC/C(Cn1cc(CNC(=O)/C=C/c3c[nH]c4ccccc34)nn1)=C\CC[C@@]1(C)O[C@@H]21
assay_value: 99.5
--
compound: COc1cc2c(cc1OCCCCCn1c3ccccc3c3ccccc31)N=C[C@@H]1CCCN1C2=O
assay_value: 46.6
--
compound: CNC(=S)NNC(=O)C1CC1
assay_value: 105
--
compound: O=[N+]([O-])c1ccc(C(c2ccccc2)c2ccccc2)cc1
assay_value: 94.8
--
compound: O=C(N/N=C/C=C\c1ccccc1)C(=O)N/N=C/C=C/c1ccccc1
assay_value: 111
--
compound: O=c1cc/c(=N\Nc2ccccc2)c(=O)/c1=N/Nc1ccccc1
assay_value: 100
--
compound: NNc1cccc(/C=C/c2ccccc2)cc1=O
assay_value: 47.9
--
compound: O=C1CS/C(=N\Nc2cc(=O)[nH]c3ccccc23)N1c1ccccc1
assay_value: 87.3
--
compound: COc1ccc(C(=O)N2NC(=O)/C(=C/c3ccc(Br)cc3)N=C2c2ccccc2)cc1
assay_value: 95.7
--
compound: CN1CCN(Cc2ccc(NC(=O)c3cncc(C#Cc4cnc(N)c5cnccc45)c3)cc2C(F)(F)F)CC1
assay_value: 2.4
--
compound: NC1=NC(SCc2ccccc2CCl)c2ncn(Cc3ccccc3CCl)c2N1 (centres undefined)
assay_value: 77.9
--
compound: O=[N+]([O-])c1cccc(-c2nc3sccn3c2-c2ccnc(NCCCNS(=O)(=O)c3ccc(Cl)cc3)n2)c1
assay_value: 50.9
--
compound: COc1cc(Cn2cc3c(c2)-c2oncc2CC3)cc(OC)c1OC
assay_value: 40.6
--
compound: CC(C)(C)NCCC(O)c1cc2c(Cl)cc(Cl)cc2c2cc(C(F)(F)F)ccc12 (centres undefined)
assay_value: -63.9
--
compound: C=C1CCC2C(C)(CO)C(O)CCC2(C)C1CC(NCc1ccccc1)C1=CCOC1=O (centres undefined)
assay_value: 100
--
compound: CN(C)c1oc(C2OC2c2ccccc2)nc1C#N (centres undefined)
assay_value: 102
--
compound: O=C(O)/C=C/C(=O)c1ccc(Cl)cc1
assay_value: 114
--
compound: COc1cccc(CC(C)=C(c2ccc(OCCN3CCCCC3)cc2)c2ccc(OCCN3CCCCC3)cc2)c1
assay_value: 18
--
compound: CCCCCCN1CSC(=S)N(CCCCCC)C1
assay_value: 91.7
--
compound: C/C=C/C1=CN2C(=O)c3cc(OC4OC(C)C(NC)C(C)(O)C4O)c(C)cc3N=C[C@@H]2C1 (some centres undefined)
assay_value: 6.04
--
compound: CCCCCCCC[C@@H](O)CC(=O)N[C@@H](CC(N)=O)C(=O)N[C@@H](CCC(N)=O)C(=O)N[C@@H](CC(=O)c1cc(C)cc(O)c1C(=O)c1c(O)cccc1O)CC(C)C
assay_value: 61.1
--
compound: COc1cc(C2CC(c3ccc4c(c3)OCO4)=NN2C(C)=O)cc(OC)c1OC (centres undefined)
assay_value: 38.7
--
compound: CN(C)CCOC(=O)Nc1ccccc1Cl
assay_value: 115

---

test system: UACC-257 melanoma; assay: NCI-60 one-dose screen, 48 h; conditions: 10 µM unless noted
Compounds without any hit were thinned out: in the full panel of roughly 83,000, 20% have a hit. The source made the active and inactive calls. How the source made its calls: active means growth percent below 10; inactive means the rest.
Outcomes: yes for active, no for inactive

smiles_code: O=[N+]([O-])c1cccc(-c2nc3sccn3c2-c2ccnc(NCCCNS(=O)(=O)c3ccc(Cl)cc3)n2)c1
assigned_category: no
--
smiles_code: Nc1cccc(-c2nc3sccn3c2-c2ccnc(NCCCNS(=O)(=O)c3cccc4ccccc34)n2)c1
assigned_category: no
--
smiles_code: c1cc(C2=N[C@@H]3c4ccccc4C[C@@H]3O2)nc(C2=N[C@@H]3c4ccccc4C[C@@H]3O2)c1
assigned_category: no
--
smiles_code: O=C1NN(C(=O)c2ccc(Cl)cc2)C(c2ccccc2)=N/C1=C\c1ccc(F)cc1
assigned_category: no
--
smiles_code: COc1ccc(-c2ccc(-c3ccc(-c4ccc(C(=N)N)cc4)s3)s2)cc1OC
assigned_category: no
--
smiles_code: COc1ccncc1S(=O)(=O)NC(=O)Nc1ccc(Cl)c(Cl)c1
assigned_category: yes
--
smiles_code: CN(CCCCN(C[C@H]1Cc2ncccc2CN1)[C@H]1CCCc2cccnc21)C1CCC(F)(F)CC1
assigned_category: no
--
smiles_code: Clc1ccc(-c2nc3ccccc3s2)cc1Cl
assigned_category: no

---

tested on: SNB-19 CNS; assay: NCI-60 one-dose screen, 48 h (100 = growth as untreated, 0 = no growth, -100 = all killed); details: 10 µM unless noted
About 83,000 compounds went through this panel and 20% of them were active in at least one assay; those are over-represented in the sample as a whole.
Below, each of the molecules is paired with its reported growth value.

molecule: Oc1ccccc1/C=N/NC(=S)NC1CC2C=CC1C2 (centres undefined)
growth [%]: 82.3
--
molecule: COc1ccc2cc(-c3ccc(-c4ccc(C(=N)N)cc4)s3)ccc2c1
growth [%]: 95.9
--
molecule: COc1cc(/C=C/C(=O)N2CCN(C(=O)/C=C/c3cc(OC)c(OC)c(OC)c3)CC2)cc(OC)c1OC
growth [%]: 105
--
molecule: COc1ccc(Nc2nn3c(-c4ccccc4)cc(-c4ccccc4)nc3c2C(N)=O)c(OC)c1
growth [%]: 58.2

---

tested on: NCI-H460 lung; test: NCI-60 one-dose screen, 48 h (100 = growth as untreated, 0 = no growth, -100 = all killed); conditions: 10 µM unless noted
This is part of a sample that, as a whole, favours compounds with a hit. Of some 83,000 tested, about 20% had one in any assay.
Field: label. Allowed values: 1 (yes) (growth < -10%) or 0 (no) (growth >= -10%).

smiles_code: CCN(CC)c1ccc(/C=C2\Oc3ccc(O)c(I)c3C2=O)cc1
experimental_target: NCI-H460 lung
assigned_category: 0 (no)

smiles_code: Cc1ccc(S(=O)(=O)/C(=C\c2ccc(Cl)cc2)C(=O)c2ccccc2)cc1
experimental_target: NCI-H460 lung
assigned_category: 0 (no)

smiles_code: COc1ccc(C2=C(c3cc(OC)c(OC)c(OC)c3)C(=O)CC2)cc1
experimental_target: NCI-H460 lung
assigned_category: 0 (no)

smiles_code: CCN(CC)c1ccc2[nH]c3c(C(N)=O)cc(=O)c(=O)c=3oc2c1
experimental_target: NCI-H460 lung
assigned_category: 1 (yes)

smiles_code: COc1cccc(CC(C)=C(c2ccc(OCCN(C)C)cc2)c2ccc(OCCN(C)C)cc2)c1
experimental_target: NCI-H460 lung
assigned_category: 1 (yes)

smiles_code: CN1CCN(Cc2ccc(NC(=O)c3cncc(C#Cc4cnc(N)c5cnccc45)c3)cc2C(F)(F)F)CC1
experimental_target: NCI-H460 lung
assigned_category: 0 (no)

smiles_code: CC(C)(C)n1cc(-c2ccnc(NCCNS(=O)(=O)c3ccc(Cl)cc3)c2)c(-c2cccc(O)c2)n1
experimental_target: NCI-H460 lung
assigned_category: 0 (no)

smiles_code: O=c1cc/c(=N\Nc2ccccc2)c(=O)/c1=N/Nc1ccccc1
experimental_target: NCI-H460 lung
assigned_category: 0 (no)
